CC50 at 72 h reference
- procedure-text: [3H]Thymidine incorporation assay (cell toxicity)
- details: human

{"compound": "CC(C)N1CCCC[C@H](N(c2cc(C#CC(C)(C)C)sc2C(=O)O)C(=O)[C@H]2CC[C@H](C)CC2)C1=O", "CC50 at 72 h": "10 to 100 µM"}
{"compound": "CC[C@@H](C(=O)N(C)C)N(c1cc(C#CC(C)(C)C)sc1C(=O)O)C(=O)[C@H]1CC[C@H](C)CC1", "CC50 at 72 h": "> 100 µM"}
{"compound": "C[C@H]1CC[C@H](C(=O)N(CC(=O)N2CCOCC2)c2cc(-c3ccc(Oc4ccccc4)cc3)sc2C(=O)O)CC1", "CC50 at 72 h": "10 to 100 µM"}
{"compound": "COCC(C(=O)N(C)C)N(C(=O)C1CCC(C)CC1)c1cc(C#CC(C)C)sc1C(=O)O (centres unmarked)", "CC50 at 72 h": "> 100 µM"}
{"compound": "CC(C)(C)C#Cc1cc(N(CC(=O)N2CCCCC2)C(=O)[C@H]2CC[C@H](C)CC2)c(C(=O)O)s1", "CC50 at 72 h": "> 100 µM"}
{"compound": "CC1CCC(C(=O)N(c2cc(C#CC(C)(C)C)sc2C(=O)O)C2CCN(C)C2=O)CC1 (centres unmarked)", "CC50 at 72 h": "> 100 µM"}
{"compound": "CCC[C@@H](C(=O)N1CCOCC1)N(C(=O)C1CCC(C)CC1)c1cc(C#CC(C)(C)C)sc1C(=O)O (some centres unmarked)", "CC50 at 72 h": "10 to 100 µM"}

Next compound, CC50 at 72 h to be filled in.
Ask: What measured CC50 at 72 h goes with Cc1ccc(C(=O)N(CC(=O)N2CCOCC2)c2cc(C#CC(C)(C)C)sc2C(=O)O)cc1 ?
Result: > 100 µM

---

- procedure-text: [3H]Thymidine incorporation assay (cell toxicity)
- details: human
quantity-name: CC50 at 72 h

Some solved cases for reference:
{"compound": "CC(C)N1CCC[C@H](N(c2cc(C#CC(C)(C)C)sc2C(=O)O)C(=O)[C@H]2CC[C@H](C)CC2)C1=O", "CC50 at 72 h": "10 to 100 µM"}
{"compound": "CC1CCC(C(=O)N(c2cc(C#CC(C)(C)C)sc2C(=O)O)[C@H]2CCCCN(C)C2=O)CC1 (some centres unmarked)", "CC50 at 72 h": "10 to 100 µM"}
{"compound": "COC[C@H](C(=O)N(C)C)N(c1cc(C#CC(C)(C)C)sc1C(=O)O)C(=O)[C@H]1CC[C@H](C)CC1", "CC50 at 72 h": "> 100 µM"}
{"compound": "CN1CCCC[C@H](N(C(=O)c2ccc(Cl)cc2Cl)c2cc(C#CC(C)(C)C)sc2C(=O)O)C1=O", "CC50 at 72 h": "> 100 µM"}

Ask: What measured CC50 at 72 h goes with CCN1CC[C@H](N(c2cc(C#CC(C)(C)C)sc2C(=O)O)C(=O)[C@H]2CC[C@H](C)CC2)C1=O ?
Result: > 100 µM

Ask: And then C[C@@H](C(=O)N(C)CCO)N(c1cc(C#CC(C)(C)C)sc1C(=O)O)C(=O)[C@H]1CC[C@H](C)CC1 , what is it?
Result: > 100 µM

Ask: And then COC1CCN(C(=O)C[C@H](C)N(c2cc(C#CC(C)(C)C)sc2C(=O)O)C(=O)[C@H]2CC[C@H](C)CC2)CC1 , what is it?
Result: > 100 µM

Ask: And then C[C@@H](C(=O)NC1CCCC1)N(c1cc(C#CC(C)(C)C)sc1C(=O)O)C(=O)[C@H]1CC[C@H](C)CC1 , what is it?
Result: 10 to 100 µM

Ask: And then CC(CC(=O)N(C)C)N(c1cc(C#CC(C)(C)C)sc1C(=O)O)C(=O)[C@H]1CC[C@H](C)CC1 (relative stereo) , what is it?
Result: 10 to 100 µM

Ask: And then C[C@@H](C(=O)N1CCCC1)N(c1cc(C#CC(C)(C)C)sc1C(=O)O)C(=O)[C@H]1CC[C@H](C)CC1 , what is it?
Result: > 100 µM

---

- System: Huh-7 ET, Molt-4, DU-145, Hep-G2 and SH-SY5Y cells
- procedure-text: [3H]Thymidine incorporation assay (cell toxicity)
- details: read-out: [3H]Thymidine CC50; [3H]thymidine incorporation, cell toxicity; mean value class; cell line not given
CC50 reference

{"compound": "CC(C)C#Cc1cc(N(CC(=O)N2CC3(COC3)C2)C(=O)C2CCC(C)CC2)c(C(=O)O)s1 (centres unmarked)", "system-under-test": "Huh-7 ET, Molt-4, DU-145, Hep-G2 and SH-SY5Y cells", "readout-value": "> 100 µM"}

Ask: What measured CC50 goes with CC[C@@H](C(=O)N1CCN(C)CC1)N(c1cc(C#CC(C)(C)C)sc1C(=O)O)C(=O)[C@H]1CC[C@H](C)CC1 ?
Result: > 100 µM

Ask: And then CO[C@H](C)[C@@H](C(=O)N(C)C)N(c1cc(C#CC(C)(C)C)sc1C(=O)O)C(=O)[C@H]1CC[C@H](C)CC1 , what is it?
Result: > 100 µM

Ask: And then COC(C)C(C(=O)N1CCOCC1)N(C(=O)C1CCC(C)CC1)c1cc(C#CC(C)(C)C)sc1C(=O)O (centres unmarked) , what is it?
Result: > 100 µM

Ask: And then COC(C)C(C(=O)N(C)C)N(C(=O)C1CCC(C)CC1)c1cc(C#CC(C)(C)C)sc1C(=O)O (centres unmarked) , what is it?
Result: 10 to 100 µM

---

- procedure-text: [3H]Thymidine incorporation assay (cell toxicity)
- details: human
quantity-name: CC50 at 72 h

Ask: What measured CC50 at 72 h goes with COC1CCN(C(=O)[C@H](C)N(c2cc(C#CC(C)(C)C)sc2C(=O)O)C(=O)[C@H]2CC[C@H](C)CC2)CC1 [Compound 53] ?
Result: > 100 µM

Ask: And then COCCN1CC[C@H](N(c2cc(C#CC(C)(C)C)sc2C(=O)O)C(=O)[C@H]2CC[C@H](C)CC2)C1=O [Compound 133] , what is it?
Result: > 100 µM

Ask: And then CO[C@H](C)[C@H](C(=O)N1CCOCC1)N(c1cc(C#CC(C)(C)C)sc1C(=O)O)C(=O)[C@H]1CC[C@H](C)CC1 [Compound 74] , what is it?
Result: > 100 µM

---

- procedure-text: [3H]Thymidine incorporation assay (cell toxicity)
- details: human
quantity-name: CC50 at 72 h

Some solved cases for reference:
{"compound": "CC[C@@H](C(=O)N1CCCOCC1)N(c1cc(C#CC(C)(C)C)sc1C(=O)O)C(=O)[C@H]1CC[C@H](C)CC1 [Compound 84]", "CC50 at 72 h": "10 to 100 µM"}
{"compound": "CC(C)[C@@H](C(=O)N(C)C)N(c1cc(C#CC(C)(C)C)sc1C(=O)O)C(=O)[C@H]1CC[C@H](C)CC1 [Compound 86]", "CC50 at 72 h": "10 to 100 µM"}
{"compound": "CC[C@H](C(=O)N1CCOCC1)N(c1cc(C#CC(C)(C)C)sc1C(=O)O)C(=O)[C@H]1CC[C@H](C)CC1 [Compound 122]", "CC50 at 72 h": "> 100 µM"}
{"compound": "C[C@@H](CC(=O)N1CCOCC1)N(c1cc(C#CC(C)(C)C)sc1C(=O)O)C(=O)[C@H]1CC[C@H](C)CC1 [Compound 105]", "CC50 at 72 h": "> 100 µM"}
{"compound": "COCCN1CCC[C@H](N(c2cc(C#CC(C)(C)C)sc2C(=O)O)C(=O)[C@H]2CC[C@H](C)CC2)C1=O [Compound 150]", "CC50 at 72 h": "> 100 µM"}
{"compound": "C[C@@H](C(=O)N1CC[C@H](CO)C1)N(c1cc(C#CC(C)(C)C)sc1C(=O)O)C(=O)[C@H]1CC[C@H](C)CC1 [Compound 39]", "CC50 at 72 h": "> 100 µM"}
{"compound": "CC(C)[C@@H](C(=O)N1CCOCC1)N(c1cc(C#CC(C)(C)C)sc1C(=O)O)C(=O)[C@H]1CC[C@H](C)CC1 [Compound 85]", "CC50 at 72 h": "10 to 100 µM"}

Ask: What measured CC50 at 72 h goes with C[C@@H](C(=O)N1CCC(O)CC1)N(c1cc(C#CC(C)(C)C)sc1C(=O)O)C(=O)[C@H]1CC[C@H](C)CC1 [Compound 20] ?
Result: > 100 µM
